test-protocol: Proof of concept pharmacokinetic / bioavailability study, plasma mitragynine after single dose
Type: in vivo, Sprague Dawley rats
condition: Sprague Dawley, rat, in vivo; mitragynine in plasma; male rats; oral 20 mg/kg
measured-property: Tmax (min)
Hi! Could you send only the number? It should be in min, unit omitted.

// Tmax lookup, key: CC[C@@H]1CN2CCc3c([nH]c4cccc(OC)c34)[C@@H]2C[C@@H]1/C(=C\OC)C(=O)OC
24
